Target: human recombinant serotonin (5-Hydroxytryptamine) 5-HT5A receptor (Homo sapiens, UniProt P47898)
Construct: expressed in transfected cells; host or cells: CHO-K1 cells
Sequence (P47898 whole entry): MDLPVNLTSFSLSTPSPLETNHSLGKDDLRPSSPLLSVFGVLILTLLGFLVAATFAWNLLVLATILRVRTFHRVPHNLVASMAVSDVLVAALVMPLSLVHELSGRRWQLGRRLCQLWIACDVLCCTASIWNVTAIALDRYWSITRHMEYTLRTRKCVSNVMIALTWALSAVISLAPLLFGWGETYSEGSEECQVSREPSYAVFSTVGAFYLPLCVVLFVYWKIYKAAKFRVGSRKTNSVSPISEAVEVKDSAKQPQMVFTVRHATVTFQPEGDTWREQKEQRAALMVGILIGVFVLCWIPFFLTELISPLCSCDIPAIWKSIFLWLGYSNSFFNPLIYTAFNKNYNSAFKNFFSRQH
Assay: Serotonin 5-HT5A radioligand binding ([3H]LSD)
Details: read-out: Serotonin 5-HT5A, inhibition of ligand binding (1 μM)
// reported inhibition at 1 µM per item
Value expressed in %; do not type the unit.

The examples below pair each entry with its known result.
CN1C2CCC1c1c(n(CCc3ccc(Cl)cc3)c3ccc(Cl)cc13)C2 (stereo not shown) [Compound 58]; 69
Cc1ccc2c(c1)c1c(n2CCc2ccccc2)CC2CCC1N2C (stereo not shown) [Compound 2]; 86

IN: Quick one: inhibition at 1 µM for CN1C2CCC1c1c(n(CCc3ccc(F)cc3)c3ccc(Cl)cc13)C2 (stereo not shown) [Compound 57] ?
OUT: 48

IN: Quick one: inhibition at 1 µM for Cc1ccc2c(c1)c1c(n2CCc2ccccc2)CC2CCCC1N2C (stereo not shown) [Compound 56] ?
OUT: 40
